Source: PubChem BioAssay AID2060611

System: 628569-122-R-J1-PDC complex spheroid viability
Assay notes: Anticancer human tumor 628569-122-R-J1-PDC patient-derived head and neck squamous carcinoma cell line growth inhibition [CLK]
Condition: second compound 3.16 µM; first compound 1 µM; active compounds read low
Quantity name: viability, T/C (%)
The reply should be a number in %, with the unit left off.

Query: Find the recorded viability, T/C belonging to COc1c(OCCCN2CCOCC2)ccc2c3n(c(=NC(=O)c4cnc(N)nc4)nc12)CCN3 + CN1CCN(c2cc(C(=O)Nc3cc4cc(-c5cnn(C)c5)ccc4cn3)ccn2)CC1 and report it.
Reply: 4.29

Query: viability, T/C lookup needed for CC(=O)O[C@H]1C(=O)[C@@]2(C)[C@H]([C@H](OC(=O)c3ccccc3)[C@]3(O)C[C@H](OC(=O)[C@H](O)[C@@H](NC(=O)c4ccccc4)c4ccccc4)C(C)=C1C3(C)C)[C@]1(OC(C)=O)CO[C@@H]1C[C@@H]2O + CNC(=O)c1ccc(Nc2nc(OC3CCCC3)c3c(-c4ccc5nc(C)oc5c4)c[nH]c3n2)c(OC)c1 , thanks.
Reply: 56.6

* * *

Test system: 628569-122-R-J1-PDC complex spheroid viability
Assay notes: Anticancer human tumor 628569-122-R-J1-PDC cell line growth inhibition [CLK];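 also: spheroids exposed to agents for seven days before readout; 100% = DMSO vehicle control viability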
Condition: second compound 10 µM; first compound 0.3 µM; active compounds read low
Excerpt: A high-throughput screen of multi-cell type tumor spheroids was designed to identify active combinations of […] and targeted small molecules. Complex spheroids include a stromal component modeled by human endothelial cells (HUVEC) and fibroblasts modeled by human mesenchymal stem cells (MSCs). […] Compounds. […] If the clinical Cmax for an agent had not been determined, the highest concentration tested was 10 microM. […]
I'd be grateful if you could share measured viability, T/C for these entries.
Report only the number, with the unit % understood.

Query: What value of viability, T/C has been reported for the following compound? NC(=O)C(=Cn1cnc(-c2cc(C(F)(F)F)cc(C(F)(F)F)c2)n1)c1cncnc1 + CN1CCN(c2cc(C(=O)Nc3cc4cc(-c5cnn(C)c5)ccc4cn3)ccn2)CC1
Reply: 5.71

Query: Sample CC(C)CC(NC(=O)C(Cc1ccccc1)NC(=O)c1cnccn1)B(O)O (stereo not drawn) + CNC(=O)c1ccc(Nc2nc(OC3CCCC3)c3c(-c4ccc5nc(C)oc5c4)c[nH]c3n2)c(OC)c1 — what was its viability, T/C?
Reply: 12.8

Query: Which viability, T/C is reported for this compound? C=CC(=O)Nc1cc(Nc2nccc(-c3cn(C)c4ccccc34)n2)c(OC)cc1N(C)CCN(C)C + CNC(=O)c1ccc(Nc2nc(OC3CCCC3)c3c(-c4ccc5nc(C)oc5c4)c[nH]c3n2)c(OC)c1
Reply: 12

* * *

Tested on: 628569-122-R-J1-PDC complex spheroid viability
Assay notes: Anticancer human tumor 628569-122-R-J1-PDC cell line growth inhibition [CLK];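 also: spheroids exposed to agents for seven days before readout; 100% = DMSO vehicle control viability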
Condition: second compound 3.16 µM; first compound 1 µM; active compounds read low
Quantity name: viability, T/C

Query: Data request, read-out viability, T/C, for COc1cccc2c1C(=O)c1c(O)c3c(c(O)c1C2=O)CC(O)(C(=O)CO)CC3OC1CC(N)C(O)C(C)O1 (stereo unspecified) + CNC(=O)c1ccc(Nc2nc(OC3CCCC3)c3c(-c4ccc5nc(C)oc5c4)c[nH]c3n2)c(OC)c1
Reply: 9.3%

Query: Return reported viability, T/C; argument: CC1(C)CCC(CN2CCN(c3ccc(C(=O)NS(=O)(=O)c4ccc(NCC5CCOCC5)c([N+](=O)[O-])c4)c(Oc4cnc5[nH]ccc5c4)c3)CC2)=C(c2ccc(Cl)cc2)C1 + CN1CCN(c2cc(C(=O)Nc3cc4cc(-c5cnn(C)c5)ccc4cn3)ccn2)CC1
Reply: 7.84%

Query: Fill in: viability, T/C of COc1ccc([C@@H](O)c2cc(-c3ncnc4cc(N5CCOCC5)ccc34)c(F)cc2Cl)nn1 + CN1CCN(c2cc(C(=O)Nc3cc4cc(-c5cnn(C)c5)ccc4cn3)ccn2)CC1 is ___
Reply: 9.74%

Query: Which viability, T/C is reported for this compound? C=CC(=O)N1CCN(c2nc(=O)n(-c3c(C)ccnc3C(C)C)c3nc(-c4c(O)cccc4F)c(F)cc23)C(C)C1 (stereo unspecified) + CNC(=O)c1ccc(Nc2nc(OC3CCCC3)c3c(-c4ccc5nc(C)oc5c4)c[nH]c3n2)c(OC)c1
Reply: 50.4%

Query: GET /values?readout=viability, T/C&item= CCc1c2c(nc3ccc(O)cc13)-c1cc3c(c(=O)n1C2)COC(=O)[C@]3(O)CC + CNC(=O)c1ccc(Nc2nc(OC3CCCC3)c3c(-c4ccc5nc(C)oc5c4)c[nH]c3n2)c(OC)c1
Reply: 7.37%

Query: Suppose we examine the compound CC(CO)NC(=O)c1cc(-c2ccc(Cl)cc2)nn(-c2cnn(C)c2)c1=O (stereo unspecified) + CN1CCN(c2cc(C(=O)Nc3cc4cc(-c5cnn(C)c5)ccc4cn3)ccn2)CC1 ; what viability, T/C value has been reported?
Reply: 7.17%

Query: // viability, T/C lookup, key: O=c1[nH]cc(F)c(=O)[nH]1 + CNC(=O)c1ccc(Nc2nc(OC3CCCC3)c3c(-c4ccc5nc(C)oc5c4)c[nH]c3n2)c(OC)c1
Reply: 48.8%

Query: # input compound: COC1C=CCC(C)C(C)S(=O)(=O)NC(=O)c2ccc3c(c2)N(CC2CCC21)CC1(CCCc2cc(Cl)ccc21)CO3 (stereo unspecified) + CN1CCN(c2cc(C(=O)Nc3cc4cc(-c5cnn(C)c5)ccc4cn3)ccn2)CC1 ; wanted: its viability, T/C
Reply: 7.72%

Query: I'd like to know its viability, T/C. The compound in question is C=C(F)C(=O)N1CCN(c2nc(OCC3CCCN3C)nc3c2CCN(c2cccc4cccc(Cl)c24)C3)CC1CC#N (stereo unspecified) + CNC(=O)c1ccc(Nc2nc(OC3CCCC3)c3c(-c4ccc5nc(C)oc5c4)c[nH]c3n2)c(OC)c1
Reply: 51.5%

Query: Value lookup for viability, T/C; key = CCN1CCN(Cc2ccc(Nc3ncc(F)c(-c4cc(F)c5nc(C)n(C(C)C)c5c4)n3)nc2)CC1 + CN1CCN(c2cc(C(=O)Nc3cc4cc(-c5cnn(C)c5)ccc4cn3)ccn2)CC1
Reply: 11.1%

Query: Tell me the measured viability, T/C of C#Cc1c(F)ccc2cc(O)cc(-c3ncc4c(N5CC6CCC(C5)N6)nc(OCC56CCCN5CC(F)C6)nc4c3F)c12 (stereo unspecified) + CN1CCN(c2cc(C(=O)Nc3cc4cc(-c5cnn(C)c5)ccc4cn3)ccn2)CC1 , please.
Reply: 5.27%

Query: Give the measured viability, T/C of CC(Nc1ccc2c(c1)OCCn1cc(N3C(=O)OCC3C(F)F)nc1-2)C(N)=O (stereo unspecified) + CNC(=O)c1ccc(Nc2nc(OC3CCCC3)c3c(-c4ccc5nc(C)oc5c4)c[nH]c3n2)c(OC)c1 .
Reply: 22.2%

Query: Please look up its viability, T/C: CC(CO)NC(=O)c1cc(-c2ccc(Cl)cc2)nn(-c2cnn(C)c2)c1=O (stereo unspecified) + CNC(=O)c1ccc(Nc2nc(OC3CCCC3)c3c(-c4ccc5nc(C)oc5c4)c[nH]c3n2)c(OC)c1
Reply: 77.6%

Query: Name the reported viability, T/C value associated with the compound Nc1ccn(C2OC(CO)C(O)C2(F)F)c(=O)n1 (stereo unspecified) + CN1CCN(c2cc(C(=O)Nc3cc4cc(-c5cnn(C)c5)ccc4cn3)ccn2)CC1
Reply: 5%

Query: Fill in: viability, T/C of Nc1ccccc1NC(=O)c1ccc(CNC(=O)OCc2cccnc2)cc1 + CNC(=O)c1ccc(Nc2nc(OC3CCCC3)c3c(-c4ccc5nc(C)oc5c4)c[nH]c3n2)c(OC)c1 is ___
Reply: 56.5%

Query: Item C#Cc1c(F)ccc2cc(O)cc(-c3ncc4c(N5CC6CCC(C5)N6)nc(OCC56CCCN5CC(F)C6)nc4c3F)c12 (stereo unspecified) + CNC(=O)c1ccc(Nc2nc(OC3CCCC3)c3c(-c4ccc5nc(C)oc5c4)c[nH]c3n2)c(OC)c1 has what recorded viability, T/C?
Reply: 39.2%

Query: Consider the compound shown here: O=C(c1cc(Cc2n[nH]c(=O)c3ccccc23)ccc1F)N1CCN(C(=O)C2CC2)CC1 + CN1CCN(c2cc(C(=O)Nc3cc4cc(-c5cnn(C)c5)ccc4cn3)ccn2)CC1 What is its recorded viability, T/C?
Reply: 5.51%

Query: Can you share its viability, T/C? I mean this compound: COc1c(OCCCN2CCOCC2)ccc2c3n(c(=NC(=O)c4cnc(N)nc4)nc12)CCN3 + CNC(=O)c1ccc(Nc2nc(OC3CCCC3)c3c(-c4ccc5nc(C)oc5c4)c[nH]c3n2)c(OC)c1
Reply: 3.02%

Query: Given the compound CC1COCCN1c1cc(C2(S(C)(=N)=O)CC2)nc(-c2ccnc3[nH]ccc23)n1 (stereo unspecified) + CN1CCN(c2cc(C(=O)Nc3cc4cc(-c5cnn(C)c5)ccc4cn3)ccn2)CC1 , what is its reported viability, T/C?
Reply: 9.55%

Query: So what's the measured viability, T/C for this one? CC1COCCN1c1cc(C2(S(C)(=N)=O)CC2)nc(-c2ccnc3[nH]ccc23)n1 (stereo unspecified) + CNC(=O)c1ccc(Nc2nc(OC3CCCC3)c3c(-c4ccc5nc(C)oc5c4)c[nH]c3n2)c(OC)c1
Reply: 37.7%

Query: Please look up its viability, T/C: CCCS(=O)(=O)Nc1ccc(F)c(C(=O)c2c[nH]c3ncc(-c4ccc(Cl)cc4)cc23)c1F + CN1CCN(c2cc(C(=O)Nc3cc4cc(-c5cnn(C)c5)ccc4cn3)ccn2)CC1
Reply: 4.48%
